TGI for assorted compounds
Test system: UACC-257 melanoma
Assay: NCI tumour cell line growth inhibition, 48 h

COMPOUND | TGI
Clc1ccc(Cl)c(N=Nc2cc3c4c(c2)CCN4CCC3)c1 | > 10 µM
COc1ccc(-c2cc(-c3ccc(Nc4nc(Nc5ccccc5)nc(Nc5ccc(Cl)cc5)n4)cc3)nc(N)n2)cc1 | 45.5 µM
COC(=O)C(=O)Cc1nc2ccccc2s1 | > 100 µM
CCc1n[nH]c(=O)n1CCCCCCCCn1c(CC)n[nH]c1=O | > 100 µM
COC(=O)C(=O)C(C(=O)OC)C(=O)C(=O)Nc1c(C)cccc1C (configuration not stated) | > 100 µM
C1CNOCCCONCCCNOCCCONC1 | > 100 µM
CN(C)c1ccc(/C=C\c2ccnc3ccccc23)cc1 | 79.4 µM
Cc1nc(N)nc(N)c1CCCCc1ccc(N)cc1 | 18.5 µM
CCOC(=O)N/N=C(/N)c1cccc(Br)c1 | > 100 µM
COc1ccc(C(O)c2cc3c(N)c(C(=O)Nc4ccc(Cl)cc4)sc3nc2C)cc1 (configuration not stated) | 57.5 µM
O=C1N=C2SC=C(NC(=S)Nc3ccccc3)N2NC12c1ccccc1-c1ccccc12 | > 10 µM
COC(=O)C(CC(C)C)NC(=O)C(NC(=O)c1ccc(-c2ccc(Cl)cc2Cl)o1)C(C)C (configuration not stated) | 64.9 µM
COc1cccc2c1-c1nc(N)c3c(OC)cccc3c1C2=O | > 100 µM
Cc1ccc(C(=O)CC2(O)C(=O)Nc3c(C)cc(Cl)cc32)cc1 (configuration not stated) | > 100 µM
Cc1ccccc1N=Nc1c(O)ccc2ccccc12 | > 100 µM
O=C1CC2OCC=C3CN4CCC56c7ccccc7N1C5C2C3CC46O (configuration not stated) | > 100 µM
Nc1nc(Nc2ccc(Cl)c(Cl)c2)nc2nc[nH]c12 | 32.7 µM

====

System: MOLT-4 leukemia
Test: NCI tumour cell line growth inhibition, 48 h
Measured TGI by item
READOUT_LABEL: TGI

COMPOUND | READOUT_LABEL | VALUE_OBSERVED
C[C@@H](CC(O)C(O)C(C)(C)O)C1CCC23CC12CCC1[C@@]2(C)CCC(O)C(C)(C)C2CC(OC2OC(CO)C(O)C(O)C2O)[C@]13C (stereo not given in full) | TGI | > 10 µM
CCOC(=O)c1c2ccc(/C=C/c3ccccn3)ccc-2c(C(=O)OCC)c1N | TGI | > 100 µM
N#C/C(=C\c1ccncc1)c1csc2ccccc12 | TGI | 43.1 µM
CC1(C)C2CCC3CC(CCC#N)CCC3C21C#N (stereo not given) | TGI | > 100 µM
FC(F)(F)c1ccc(C2ON=C(c3ccccc3)N2C23CC4CC(CC(C4)C2)C3)cc1 (stereo not given) | TGI | > 10 µM
CSc1nc(=S)[nH]c2c1c(C)nn2-c1ccccc1 | TGI | 45.3 µM
O=C1Nc2ccc(Cl)cc2/C1=C\c1c(-c2ccc(Cl)cc2)nc2sc(C3CC3)nn12 | TGI | > 100 µM
O=[N+]([O-])c1ccc(SN=S=NSc2cccc(SN=S=NSc3ccc([N+](=O)[O-])cc3)c2)cc1 | TGI | > 100 µM
CC1(C)CCC(Sc2ccccc2)O1 (stereo not given) | TGI | > 100 µM
O=C1C(c2ccccc2)=C(c2ccccc2)C(c2ccc(Cc3ccc(C4=C(c5ccccc5)C(=O)C(c5ccccc5)=C4c4ccccc4)cc3)cc2)=C1c1ccccc1 | TGI | > 100 µM
